# n (number of binding sites) annotations
- Test Target: α-amylase (Sus scrofa, UniProt P00690)
- Sequence (P00690 16-511): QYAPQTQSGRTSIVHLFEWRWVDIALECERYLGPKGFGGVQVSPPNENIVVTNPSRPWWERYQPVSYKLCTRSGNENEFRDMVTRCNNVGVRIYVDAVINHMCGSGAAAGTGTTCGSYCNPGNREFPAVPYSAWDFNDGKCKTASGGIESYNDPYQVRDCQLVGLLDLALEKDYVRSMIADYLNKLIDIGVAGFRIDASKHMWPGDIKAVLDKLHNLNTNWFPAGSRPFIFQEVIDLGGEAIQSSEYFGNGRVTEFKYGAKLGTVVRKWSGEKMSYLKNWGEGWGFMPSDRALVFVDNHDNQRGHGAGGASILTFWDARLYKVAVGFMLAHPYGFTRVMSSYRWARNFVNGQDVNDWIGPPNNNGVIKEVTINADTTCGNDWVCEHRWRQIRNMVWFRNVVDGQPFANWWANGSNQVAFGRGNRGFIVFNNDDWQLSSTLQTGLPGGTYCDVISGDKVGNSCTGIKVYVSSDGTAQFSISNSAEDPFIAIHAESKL
- Assay Procedure: Fluorescence quenching, binding and thermodynamics with α-amylase
- Measurement Setup: T 310 K
Just the number, please.

For orientation, consider the following solved cases.
1) Nc1ccc(-c2c3nc(c(-c4ccc(N)cc4)c4ccc([nH]4)c(-c4ccc(N)cc4)c4nc(c(-c5ccc(N)cc5)c5ccc2[nH]5)C=C4)C=C3)cc1 [TAPP]
1.31
2) Oc1ccc(-c2c3nc(c(-c4ccc(O)cc4)c4ccc([nH]4)c(-c4ccc(O)cc4)c4nc(c(-c5ccc(O)cc5)c5ccc2[nH]5)C=C4)C=C3)cc1 [THPP]
1.12
3) O=C(O)c1ccc(-c2c3nc(c(-c4ccc(C(=O)O)cc4)c4ccc([nH]4)c(-c4ccc(C(=O)O)cc4)c4nc(c(-c5ccc(C(=O)O)cc5)c5ccc2[nH]5)C=C4)C=C3)cc1.[Cu+2] [Cu–TCPP]
0.78
4) O=C(O)c1ccc(-c2c3nc(c(-c4ccc(C(=O)O)cc4)c4ccc([nH]4)c(-c4ccc(C(=O)O)cc4)c4nc(c(-c5ccc(C(=O)O)cc5)c5ccc2[nH]5)C=C4)C=C3)cc1 [TCPP]
1.20

Now turn to the next molecule.
(Q) Param item = O=C(O)c1ccc(-c2c3nc(c(-c4ccc(C(=O)O)cc4)c4ccc([nH]4)c(-c4ccc(C(=O)O)cc4)c4nc(c(-c5ccc(C(=O)O)cc5)c5ccc2[nH]5)C=C4)C=C3)cc1.[Ni+2] [Ni–TCPP] ; retrieve measured n (number of binding sites).
(A) 0.99

----------
# Ksv annotations
- Test Target: α-amylase (Sus scrofa, UniProt P00690)
- Sequence (P00690 16-511): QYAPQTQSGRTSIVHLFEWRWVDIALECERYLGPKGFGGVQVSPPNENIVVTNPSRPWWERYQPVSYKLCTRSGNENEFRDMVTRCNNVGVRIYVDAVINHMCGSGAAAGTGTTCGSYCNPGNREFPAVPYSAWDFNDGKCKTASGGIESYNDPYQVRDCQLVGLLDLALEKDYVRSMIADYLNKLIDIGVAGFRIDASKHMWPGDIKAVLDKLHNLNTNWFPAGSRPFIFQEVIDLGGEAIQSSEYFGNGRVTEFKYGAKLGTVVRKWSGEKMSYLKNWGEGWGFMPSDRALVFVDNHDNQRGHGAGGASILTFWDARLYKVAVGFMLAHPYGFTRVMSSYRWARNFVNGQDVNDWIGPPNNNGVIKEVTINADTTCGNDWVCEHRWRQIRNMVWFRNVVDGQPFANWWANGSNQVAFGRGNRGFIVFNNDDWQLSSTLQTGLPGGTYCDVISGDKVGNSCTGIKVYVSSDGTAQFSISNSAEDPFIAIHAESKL
- Assay Procedure: Fluorescence quenching, binding and thermodynamics with α-amylase
- Measurement Setup: T 298 K

For orientation, consider the following solved cases.
1) Nc1ccc(-c2c3nc(c(-c4ccc(N)cc4)c4ccc([nH]4)c(-c4ccc(N)cc4)c4nc(c(-c5ccc(N)cc5)c5ccc2[nH]5)C=C4)C=C3)cc1
4.07 ± 0.05 ×10^4 L/mol
2) Oc1ccc(-c2c3nc(c(-c4ccc(O)cc4)c4ccc([nH]4)c(-c4ccc(O)cc4)c4nc(c(-c5ccc(O)cc5)c5ccc2[nH]5)C=C4)C=C3)cc1
8.90 ± 0.06 ×10^4 L/mol
3) O=C(O)c1ccc(-c2c3nc(c(-c4ccc(C(=O)O)cc4)c4ccc([nH]4)c(-c4ccc(C(=O)O)cc4)c4nc(c(-c5ccc(C(=O)O)cc5)c5ccc2[nH]5)C=C4)C=C3)cc1.[Cu+2]
4.37 ± 0.07 ×10^4 L/mol
4) O=C(O)c1ccc(-c2c3nc(c(-c4ccc(C(=O)O)cc4)c4ccc([nH]4)c(-c4ccc(C(=O)O)cc4)c4nc(c(-c5ccc(C(=O)O)cc5)c5ccc2[nH]5)C=C4)C=C3)cc1
4.04 ± 0.01 ×10^4 L/mol

(Q) Param item = O=C(O)c1ccc(-c2c3nc(c(-c4ccc(C(=O)O)cc4)c4ccc([nH]4)c(-c4ccc(C(=O)O)cc4)c4nc(c(-c5ccc(C(=O)O)cc5)c5ccc2[nH]5)C=C4)C=C3)cc1.[Ni+2] ; retrieve measured Ksv.
(A) 9.78 ± 0.03 ×10^4 L/mol

----------
# Peak 1 Fluorescence Intensity annotations
- Test Target: α-amylase (Sus scrofa)
- Assay Procedure: Three-dimensional fluorescence spectroscopy of α-amylase complexes
- Measurement Setup: 298 K; TAPP 2.5, THPP 10, TCPP 10, Fe–TCPP 12.5, Ni–TCPP 17.5, Cu–TCPP 10 μg/mL
Just the number, please.

For orientation, consider the following solved cases.
1. Nc1ccc(-c2c3nc(c(-c4ccc(N)cc4)c4ccc([nH]4)c(-c4ccc(N)cc4)c4nc(c(-c5ccc(N)cc5)c5ccc2[nH]5)C=C4)C=C3)cc1
317.2
2. O=C(O)c1ccc(-c2c3nc(c(-c4ccc(C(=O)O)cc4)c4ccc([nH]4)c(-c4ccc(C(=O)O)cc4)c4nc(c(-c5ccc(C(=O)O)cc5)c5ccc2[nH]5)C=C4)C=C3)cc1
461.6
3. Oc1ccc(-c2c3nc(c(-c4ccc(O)cc4)c4ccc([nH]4)c(-c4ccc(O)cc4)c4nc(c(-c5ccc(O)cc5)c5ccc2[nH]5)C=C4)C=C3)cc1
297.5
4. O=C(O)c1ccc(-c2c3nc(c(-c4ccc(C(=O)O)cc4)c4ccc([nH]4)c(-c4ccc(C(=O)O)cc4)c4nc(c(-c5ccc(C(=O)O)cc5)c5ccc2[nH]5)C=C4)C=C3)cc1.[Ni+2]
225.2

(Q) Param item = O=C(O)c1ccc(-c2c3nc(c(-c4ccc(C(=O)O)cc4)c4ccc([nH]4)c(-c4ccc(C(=O)O)cc4)c4nc(c(-c5ccc(C(=O)O)cc5)c5ccc2[nH]5)C=C4)C=C3)cc1.[Cu+2] ; retrieve measured Peak 1 Fluorescence Intensity.
(A) 313.1

----------
- Test Target: α-amylase (Sus scrofa, UniProt P00690)
- Assay Procedure: Fluorescence quenching, binding and thermodynamics with α-amylase
- Measurement Setup: T 298 K
Observable: n (number of binding sites)
Just the number, please.

For orientation, consider the following solved cases.
1. O=C(O)c1ccc(-c2c3nc(c(-c4ccc(C(=O)O)cc4)c4ccc([nH]4)c(-c4ccc(C(=O)O)cc4)c4nc(c(-c5ccc(C(=O)O)cc5)c5ccc2[nH]5)C=C4)C=C3)cc1.[Ni+2]
1.44
2. Oc1ccc(-c2c3nc(c(-c4ccc(O)cc4)c4ccc([nH]4)c(-c4ccc(O)cc4)c4nc(c(-c5ccc(O)cc5)c5ccc2[nH]5)C=C4)C=C3)cc1
1.19
3. Nc1ccc(-c2c3nc(c(-c4ccc(N)cc4)c4ccc([nH]4)c(-c4ccc(N)cc4)c4nc(c(-c5ccc(N)cc5)c5ccc2[nH]5)C=C4)C=C3)cc1
1.48
4. O=C(O)c1ccc(-c2c3nc(c(-c4ccc(C(=O)O)cc4)c4ccc([nH]4)c(-c4ccc(C(=O)O)cc4)c4nc(c(-c5ccc(C(=O)O)cc5)c5ccc2[nH]5)C=C4)C=C3)cc1
1.36

Now turn to the next compound.
(Q) Param item = O=C(O)c1ccc(-c2c3nc(c(-c4ccc(C(=O)O)cc4)c4ccc([nH]4)c(-c4ccc(C(=O)O)cc4)c4nc(c(-c5ccc(C(=O)O)cc5)c5ccc2[nH]5)C=C4)C=C3)cc1.[Cu+2] ; retrieve measured n (number of binding sites).
(A) 0.93

All values here come from paper PMC12467033.
